Source of measurements: patent US20130108641A1

Hi there, I'd appreciate the recorded pKd for every entry that follows.
Tested System: T1, cynomolgus monkey GITR-Fc (cynomolgus monkey)
T1 construct: extracellular domain; also called cGITR-FC; cGITR
Method Notes: SPR (BIAcore 2000), mAb captured on anti-mouse Fc, antigen injected
Numbers only, as −log10 of the molar value.

Below, each entry is followed by its recorded pKd result.
>  <Binder>
anti-GITR antibody clone 827 (antibody, V domains shown, Murine hybridoma antibody; also called 827-GITR2; 827 GITR-2) VH: EVQLQQSGTVLARPGASVKMSCETSGYSFTTYWIHWIKQRPGQGLEWIATIYPGNSDAGYNQKFRGKAKLTAVTSASTAYMELSSLTNEDSAVYYCTRSSTYPHFDYWGQGTTLTVSS VL: DILLTQSPAILSVSPGERVSFSCRASQSIGTSIHWYQQRTNDSPRLLIKYASESISGIPSRFSGSGSGTDFTLNINSVESEDIADYYCQQTNNWPLTFGAGTKLELK

>  <Observable>
pKd

>  <Recorded Result>
7.68

$$$$
>  <Binder>
anti-GITR antibody clone 1718 (antibody, V domains shown, Murine hybridoma antibody; also called 1718-GITR2; 1718 GITR-2) VH: QVQVQQSGPELVKPGASVRISCKASDYTFTNYYIHWVRQRPGQGLEWLGWIYPGKGYTNYNEKFKGKATLTADKSSSTAYMQFSSLTSEDSAVYFCASGYGNYYFPYWGQGTLVTVSA VL: IQMTQSSSYLSVSLGGRVTITCKASDHIKNWLAWYQQKPGNVPRLLMSAATSLETGFPSRFSGSGSGKDFTLTITSLQTEDVATYYCQQYWSTPWTFGGGTKLEIK

>  <Observable>
pKd

>  <Recorded Result>
8.47

$$$$

Supply recorded pKd for anti-GITR antibody clone 1649 (antibody, V domains shown, Murine hybridoma antibody; also called 1649-GITR2; 1649 GITR-2) VH: EVQLQQSGTVLAGPGTSVKMSCEASGYSFTTYWIHWIKQRPGQGLEWIGAIYPGNSDAGYNQKFKGKAKLTAVTSASTAYMELSSLTNEDSAVYYCTRSSTYPHFDYWGQGTTLTVSS VL: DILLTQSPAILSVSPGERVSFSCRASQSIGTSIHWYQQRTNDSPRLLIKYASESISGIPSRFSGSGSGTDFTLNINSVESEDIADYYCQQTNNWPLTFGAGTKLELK here.
8.01
